Entries and their Aspergillus fumigatus MIC
Tested on: A. fumigatus
PROTOCOL DETAILS: A. fumigatus MIC at 100% growth inhibition (CLSI M38-A2)
Type: cell-based, Aspergillus fumigatus
SETUP CONDITIONS: 100% growth inhibition; range tested 8-0.0078 μg/mL; values given as ranges

Known results for compounds:
COMPOUND	Aspergillus fumigatus MIC
OC(CC(F)(F)F)c1ccc(N2CCN(c3ccc(-c4ccc(C(F)(F)[C@](O)(Cn5cnnn5)c5ccc(F)cc5)nc4)cc3)CC2)cn1 (single isomer, unassigned; (+)) [121(+)]	0.25 to 1.0 µg/mL
OC(c1ccc(N2CCN(c3ccc(-c4ccc(C(F)(F)C(O)(Cn5cnnn5)c5cc(F)ccc5F)nc4)cc3)CC2)cc1)C(F)(F)F (stereo not drawn) [15(+)]	0.25 to 1.0 µg/mL
OC(CC(F)(F)F)c1ccc(N2CCN(c3ccc(-c4ccc(C(F)(F)[C@](O)(Cn5cnnn5)c5ccc(F)cc5F)nc4)cc3)CC2)cn1 (single isomer, unassigned) [Example 13-Fr-I]	0.062 to 0.25 µg/mL
CC[C@@H]([C@H](C)O)n1ncn(-c2ccc(N3CCN(c4ccc(-c5ccc(C(F)(F)[C@](O)(Cn6cnnn6)c6ccc(F)cc6F)nc5)cc4)CC3)cn2)c1=O [Example 124]	0.25 to 1.0 µg/mL
CC[C@@H]([C@H](C)O)n1ncn(-c2ccc(N3CCN(c4ccc(-c5ccc(C(F)(F)C(O)(Cn6cnnn6)c6ccccc6F)nc5)cc4)CC3)cc2)c1=O (stereo partly drawn) [38(+)]	0.062 to 0.25 µg/mL
OC(CC(F)(F)F)c1ccc(N2CCN(c3ccc(-c4ccc(C(F)(F)[C@](O)(Cn5cncn5)c5ccc(F)cc5F)nc4)cc3)CC2)cn1 (single isomer, unassigned; (-)) [120(−)]	0.25 to 1.0 µg/mL
OC(c1ccc(N2CCN(c3ccc(-c4ccc(C(F)(F)[C@](O)(Cn5cnnn5)c5ccc(F)cc5F)nc4)cc3)CC2)cn1)C(F)(F)F (stereo partly shown) [Example 6]	0.25 to 1.0 µg/mL
OC(CC(F)(F)F)c1ccc(N2CCN(c3ccc(-c4ccc(C(F)(F)[C@](O)(Cn5cnnn5)c5ccccc5F)nc4)cc3)CC2)cn1 (single isomer, unassigned; (-)) [122(−)]	>8 µg/mL
OC(CC(F)(F)F)c1ccc(N2CCN(c3ccc(-c4ccc(C(F)(F)[C@](O)(Cn5cnnn5)c5ccc(F)cc5)nc4)cc3)CC2)cn1 (single isomer, unassigned; (-)) [121(−)]	>8 µg/mL
OC(CC(F)(F)F)c1ccc(N2CCN(c3ccc(-c4ccc(C(F)(F)[C@](O)(Cn5cncn5)c5ccc(F)cc5F)nc4)cc3)CC2)cn1 (single isomer, unassigned; (+)) [120(+)]	0.062 to 0.25 µg/mL

Reported Aspergillus fumigatus MIC, compound OC(c1ccc(N2CCN(c3ccc(-c4ccc(C(F)(F)C(O)(Cn5cnnn5)c5cc(F)ccc5F)nc4)cc3)CC2)cc1)C(F)(F)F (stereo not drawn) [15(−)] : ____ >8 µg/mL

Please do the same for OC(c1cn(-c2ccc(N3CCN(c4ccc(-c5ccc(C(F)(F)C(O)(Cn6cnnn6)c6ccccc6F)nc5)cc4)CC3)cn2)nn1)C(F)(F)F (single isomer, unassigned; (-)) [110(−)] as well. >8 µg/mL

Please do the same for CC[C@@H]([C@H](C)O)n1ncn(-c2ccc(N3CCN(c4ccc(-c5ccc(C(F)(F)[C@](O)(Cn6cnnn6)c6ccc(F)cc6)nc5)cc4)CC3)cn2)c1=O [109(+)] as well. 0.25 to 1.0 µg/mL

* * *

Test system: A. fumigatus
PROTOCOL DETAILS: A. fumigatus MIC at 100% growth inhibition (CLSI M38-A2)
Type: cell-based, Aspergillus fumigatus
SETUP CONDITIONS: 100% growth inhibition; range tested 8-0.0078 μg/mL; values given as ranges
Procedure: A. fumigatus MICs were determined at 100% growth inhibition following CLSI guidelines at a concentration range of 8-0.0078 μg/mL (CLSI M38-A2).
MEASURED QUANTITY: Aspergillus fumigatus MIC

Known results for compounds:
COMPOUND	Aspergillus fumigatus MIC
CC[C@@H]([C@H](C)O)n1ncn(-c2ccc(N3CCN(c4ccc(-c5ccc(C(F)(F)[C@](O)(Cn6cnnn6)c6ccccc6F)nc5)cc4)CC3)cn2)c1=O [102(+)]	0.25 to 1.0 µg/mL
CC[C@@H]([C@H](C)O)n1ncn(-c2ccc(N3CCN(c4ccc(-c5ccc(C(F)(F)C(O)(Cn6cncn6)c6ccc(F)cc6F)nc5)cc4)CC3)cc2)c1=O (single isomer, unassigned; (-)) [123(−)]	0.25 to 1.0 µg/mL
OC(c1ccc(N2CCN(c3ccc(-c4ccc(C(F)(F)[C@](O)(Cn5cnnn5)c5ccc(F)cc5F)nc4)cc3)CC2)cn1)C(F)(F)F (single isomer, unassigned) [Example 6-Fr-II]	0.25 to 1.0 µg/mL

Reported Aspergillus fumigatus MIC, compound CC[C@@H]([C@H](C)O)n1ncn(-c2ccc(N3CCN(c4ccc(-c5ccc(C(F)(F)C(O)(Cn6cncn6)c6ccc(F)cc6F)nc5)cc4)CC3)cc2)c1=O (single isomer, unassigned; (+)) [123(+)] : ____ 0.062 to 0.25 µg/mL

Please do the same for CC[C@@H]([C@H](C)O)n1ncn(-c2ccc(N3CCN(c4ccc(-c5ccc(C(F)(F)[C@](O)(Cn6cnnn6)c6ccc(F)cc6)nc5)cc4)CC3)cn2)c1=O [109(−)] as well. 1.0 to 4.0 µg/mL

Please do the same for CC[C@@H]([C@H](C)O)n1ncn(-c2ccc(N3CCN(c4ccc(-c5ccc(C(F)(F)[C@](O)(Cn6cnnn6)c6ccc(F)cc6F)nc5)cc4)CC3)cn2)c1=O [Example 82] as well. 0.062 to 0.25 µg/mL

Please do the same for CC[C@@H]([C@H](C)O)n1ncn(-c2ccc(N3CCN(c4ccc(-c5ccc(C(F)(F)[C@](O)(Cn6cnnn6)c6ccccc6F)nc5)cc4)CC3)cn2)c1=O [102(−)] as well. >8 µg/mL

Please do the same for OC(c1cn(-c2ccc(N3CCN(c4ccc(-c5ccc(C(F)(F)C(O)(Cn6cnnn6)c6ccccc6F)nc5)cc4)CC3)cn2)nn1)C(F)(F)F (single isomer, unassigned; (+)) [110(+)] as well. 0.25 to 1.0 µg/mL

Please do the same for OC(c1cn(-c2ccc(N3CCN(c4ccc(-c5ccc(C(F)(F)C(O)(Cn6cnnn6)c6ccccc6F)nc5)cc4)CC3)cc2)nn1)C(F)(F)F (single isomer, unassigned; (-)) [108(−)] as well. >8 µg/mL

Please do the same for OC(CC(F)(F)F)c1ccc(N2CCN(c3ccc(-c4ccc(C(F)(F)[C@](O)(Cn5cnnn5)c5ccccc5F)nc4)cc3)CC2)cn1 (single isomer, unassigned; (+)) [122(+)] as well. 0.25 to 1.0 µg/mL

Data credit: patent US10464922B2
